From: the Human Domainome abundance scans (Beltran et al. 2025)

B1: Probable E3 ubiquitin-protein ligase MID2, residues 191 to 235; numbered along this chain, Q9UJV3 (parent)
chain: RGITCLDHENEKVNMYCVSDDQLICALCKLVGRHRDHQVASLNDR

# Variants of: B1
# ASSAY METHOD TEXT: abundance fitness (aPCA) (normalised: wild type 0, dead -1); higher = more abundant; growth selection in yeast, the domain comes from the species named
# CONDITION NOTES: Homo sapiens
MEASUREMENT TYPE: abundance fitness
The reply should be a number, written without any unit.

For orientation, consider the following solved cases.
{"VARIANT NAME": "D7W", "abundance fitness": -0.294}
{"VARIANT NAME": "Q22V", "abundance fitness": -0.012}
{"VARIANT NAME": "I3T", "abundance fitness": 0.08}
{"VARIANT NAME": "E9Y", "abundance fitness": -0.051}
{"VARIANT NAME": "N10M", "abundance fitness": -0.173}

Value of measured abundance fitness for the entry L23H : -0.074

Recorded abundance fitness (variant R1F ): 0.127

The reported value for R1V in terms of abundance fitness is -0.195
